From: ChEMBL document CHEMBL3407413

Molecular target: Fatty acid synthase (Homo sapiens)
Sequence (P49327 whole entry): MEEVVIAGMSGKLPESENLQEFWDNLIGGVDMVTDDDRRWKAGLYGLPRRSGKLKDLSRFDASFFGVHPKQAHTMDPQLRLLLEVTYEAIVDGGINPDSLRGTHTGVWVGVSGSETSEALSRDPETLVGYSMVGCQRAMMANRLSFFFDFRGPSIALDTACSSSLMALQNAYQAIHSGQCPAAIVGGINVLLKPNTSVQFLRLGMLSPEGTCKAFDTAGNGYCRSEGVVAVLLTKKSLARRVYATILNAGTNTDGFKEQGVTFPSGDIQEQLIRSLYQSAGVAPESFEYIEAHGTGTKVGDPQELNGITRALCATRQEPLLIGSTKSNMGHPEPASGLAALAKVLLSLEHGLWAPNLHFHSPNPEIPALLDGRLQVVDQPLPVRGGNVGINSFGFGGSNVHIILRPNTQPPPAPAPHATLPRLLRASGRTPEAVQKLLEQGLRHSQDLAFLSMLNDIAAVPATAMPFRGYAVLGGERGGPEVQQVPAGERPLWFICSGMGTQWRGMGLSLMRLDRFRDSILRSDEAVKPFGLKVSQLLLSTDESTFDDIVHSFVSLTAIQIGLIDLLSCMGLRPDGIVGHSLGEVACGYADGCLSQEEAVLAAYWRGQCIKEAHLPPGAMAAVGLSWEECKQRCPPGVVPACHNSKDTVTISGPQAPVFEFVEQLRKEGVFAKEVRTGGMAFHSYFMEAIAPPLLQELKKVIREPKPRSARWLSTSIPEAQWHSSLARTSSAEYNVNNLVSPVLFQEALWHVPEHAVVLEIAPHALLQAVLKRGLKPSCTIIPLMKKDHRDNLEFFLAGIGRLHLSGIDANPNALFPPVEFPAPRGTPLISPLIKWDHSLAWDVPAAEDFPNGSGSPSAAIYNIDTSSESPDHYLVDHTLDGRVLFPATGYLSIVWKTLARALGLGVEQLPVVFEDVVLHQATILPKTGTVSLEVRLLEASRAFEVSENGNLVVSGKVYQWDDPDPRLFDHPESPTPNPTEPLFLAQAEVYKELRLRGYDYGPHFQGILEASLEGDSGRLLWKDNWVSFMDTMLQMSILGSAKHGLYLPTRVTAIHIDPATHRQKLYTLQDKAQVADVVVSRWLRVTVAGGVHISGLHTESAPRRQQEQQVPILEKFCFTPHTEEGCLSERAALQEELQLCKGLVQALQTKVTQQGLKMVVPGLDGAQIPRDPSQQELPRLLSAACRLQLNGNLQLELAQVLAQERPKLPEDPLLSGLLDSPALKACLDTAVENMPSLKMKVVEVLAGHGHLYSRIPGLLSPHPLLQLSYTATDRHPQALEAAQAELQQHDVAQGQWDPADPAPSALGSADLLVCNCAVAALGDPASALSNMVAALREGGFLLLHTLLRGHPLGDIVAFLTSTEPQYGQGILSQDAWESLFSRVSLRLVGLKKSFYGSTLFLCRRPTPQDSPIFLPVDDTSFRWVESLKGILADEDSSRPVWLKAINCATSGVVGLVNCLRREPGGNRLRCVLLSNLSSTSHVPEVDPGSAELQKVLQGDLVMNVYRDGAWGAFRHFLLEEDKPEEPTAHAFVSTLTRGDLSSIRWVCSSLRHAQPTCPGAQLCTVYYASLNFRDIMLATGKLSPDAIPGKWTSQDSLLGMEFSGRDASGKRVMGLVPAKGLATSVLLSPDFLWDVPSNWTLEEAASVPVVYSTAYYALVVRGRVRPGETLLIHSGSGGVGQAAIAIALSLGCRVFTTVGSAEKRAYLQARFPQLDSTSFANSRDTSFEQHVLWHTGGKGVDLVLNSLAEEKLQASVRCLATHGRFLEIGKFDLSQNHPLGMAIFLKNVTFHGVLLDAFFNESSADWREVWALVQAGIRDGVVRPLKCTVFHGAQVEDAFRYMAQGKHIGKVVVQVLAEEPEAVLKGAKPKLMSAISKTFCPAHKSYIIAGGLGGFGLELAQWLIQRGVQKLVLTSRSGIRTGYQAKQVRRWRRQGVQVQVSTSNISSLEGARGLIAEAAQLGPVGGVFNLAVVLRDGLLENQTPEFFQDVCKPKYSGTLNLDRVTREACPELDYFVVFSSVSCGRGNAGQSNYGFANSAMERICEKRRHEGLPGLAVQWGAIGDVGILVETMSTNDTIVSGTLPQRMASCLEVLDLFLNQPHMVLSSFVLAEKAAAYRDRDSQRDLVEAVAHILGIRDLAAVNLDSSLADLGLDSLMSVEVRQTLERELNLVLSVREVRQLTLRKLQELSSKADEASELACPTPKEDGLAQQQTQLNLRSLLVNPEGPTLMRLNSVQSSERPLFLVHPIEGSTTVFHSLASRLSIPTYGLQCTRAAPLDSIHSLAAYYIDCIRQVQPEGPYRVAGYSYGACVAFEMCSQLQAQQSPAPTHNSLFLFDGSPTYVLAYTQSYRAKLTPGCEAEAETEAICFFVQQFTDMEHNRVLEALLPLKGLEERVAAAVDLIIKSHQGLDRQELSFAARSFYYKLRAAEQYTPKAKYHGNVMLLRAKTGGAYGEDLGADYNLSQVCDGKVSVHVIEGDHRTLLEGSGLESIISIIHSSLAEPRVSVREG
Assay: Inhibition of purified recombinant FASN TE activity (unknown origin) using 4-MUH as substrate preincubated for 30 mins before substrate addition measured after 1 hr by fluorescence assay
PARAMETER_MEASURED: Ki (µM)
# unit: µM | format: bare number

Incoming: // Ki lookup, key: Cc1c(OCC(F)(F)F)ccnc1C[S+]([O-])c1nc2ccccc2[nH]1 (stereo unspecified)
Outgoing: 5.3

###

Target: Fatty acid synthase (Homo sapiens)
Experiment: Inhibition of purified recombinant FASN TE activity (unknown origin) using 4-MUH as substrate preincubated for 30 mins before substrate addition measured after 1 hr by fluorescence assay
PARAMETER_MEASURED: IC50

Incoming: For the compound shown here, Cc1c(OCC(F)(F)F)ccnc1C[S+]([O-])c1nc2ccccc2[nH]1 (stereo unspecified) [LANSOPRAZOLE] , give the reported IC50.
Outgoing: 46.7 µM
